The origin of these recorded values is patent US8865738B2.

Readings of melting point for the listed molecules

Below are worked cases with known answers.
molecule	test.value
O=C(NC[C@H]1C[C@@H]2CN(c3ccc(-c4ccc(F)cc4)cn3)C[C@@H]2C1)OCc1cscn1 [Compound No. 3]	129 to 131 °C
CNC(=O)c1cc(COC(=O)NCC[C@@H]2C[C@@H]3CN(c4ccc(Br)cn4)C[C@@H]3C2)on1 [Compound No. 10]	157 to 159 °C
CNC(=O)c1cc(COC(=O)NC2C3CN(c4ccc5cc(F)ccc5n4)CC32)on1 (stereo not shown) [Compound No. 14]	220 to 222 °C

Here is another molecule to look at.
Name the recorded melting point for Cn1ncnc1COC(=O)NC[C@H]1C[C@@H]2CN(c3cccc(-c4cncc(F)c4)n3)C[C@@H]2C1 [Compound No. 8] . 136 to 138 °C

====

- system: FAAH (Fatty Acid Amide Hydrolase) (Mus musculus)
- Construct: The membrane homogenates are prepared extemporaneously by homogenizing the tissues; from tissue; host or cells: mouse brain (minus the cerebellum), membrane homogenate
- experiment.notes: fluorescent enzymatic test, hydrolysis of AAMC with FAAH (protocol 2)
- Format: biochemical
- run.parameters: mouse brain homogenate, AAMC 10 μM, 40 min at 37° C., read-out: IC50 (concentration that inhibits 50% of the control enzymatic activity of FAAH)
result.type: pIC50
Please express pIC50 as -log10 of the molar concentration.

Look at this molecule and give its reported pIC50. CNC(=O)c1cc(COC(=O)NC2C3CN(c4ccc5cc(F)ccc5n4)CC32)on1 (stereo not shown) 7.92

====

- system: FAAH (Fatty Acid Amide Hydrolase) (Mus musculus, UniProt O08914)
- Construct: The membrane homogenates are prepared extemporaneously by homogenizing the tissues; from tissue; host or cells: mouse brain (minus the cerebellum), membrane homogenate
- Sequence (O08914 whole entry): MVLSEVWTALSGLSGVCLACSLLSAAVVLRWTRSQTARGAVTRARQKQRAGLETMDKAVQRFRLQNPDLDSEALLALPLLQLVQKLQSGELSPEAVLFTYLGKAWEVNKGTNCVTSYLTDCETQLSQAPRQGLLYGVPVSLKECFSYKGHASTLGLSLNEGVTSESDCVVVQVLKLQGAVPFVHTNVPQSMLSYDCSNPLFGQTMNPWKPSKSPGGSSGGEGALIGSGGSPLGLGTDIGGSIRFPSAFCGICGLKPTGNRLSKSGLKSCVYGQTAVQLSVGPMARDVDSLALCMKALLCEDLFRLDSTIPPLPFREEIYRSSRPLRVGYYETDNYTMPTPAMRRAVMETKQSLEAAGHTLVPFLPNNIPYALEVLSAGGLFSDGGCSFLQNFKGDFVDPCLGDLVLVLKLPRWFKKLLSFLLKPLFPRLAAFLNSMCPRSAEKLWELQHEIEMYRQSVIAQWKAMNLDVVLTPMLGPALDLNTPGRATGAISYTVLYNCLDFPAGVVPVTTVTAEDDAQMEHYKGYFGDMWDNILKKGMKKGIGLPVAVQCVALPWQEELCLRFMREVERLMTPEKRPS
- experiment.notes: radioenzymatic test, hydrolysis of anandamide [ethanolamine 1-3H] with FAAH (protocol 1)
- Format: biochemical
- run.parameters: mouse brain membrane homogenate, anandamide 10 μM, 20 min preincubation at 25° C., read-out: IC50 (concentration that inhibits 50% of the control enzymatic activity of FAAH)
result.type: IC50 (nM)

compound	result.type	test.value
Cn1ncnc1COC(=O)NC[C@H]1C[C@@H]2CN(c3ccc(-c4ccc(F)cc4)cn3)C[C@@H]2C1	IC50	170
Cn1cc(-c2ccc(N3CC4CC(CNC(=O)OCc5cscn5)CC4C3)nc2)cn1 (stereo not drawn)	IC50	8.5
O=C(NC[C@H]1C[C@@H]2CN(c3ccc(-c4ccc(F)cc4)cn3)C[C@@H]2C1)OCc1cscn1	IC50	0.98
O=C(NC[C@H]1C[C@@H]2CN(c3cccc(C(F)(F)F)n3)C[C@@H]2C1)OCc1cscn1	IC50	200

A: CNC(=O)c1cc(COC(=O)NCC[C@@H]2C[C@@H]3CN(c4ccc(Br)cn4)C[C@@H]3C2)on1
B: Cn1ncnc1COC(=O)NC[C@H]1C[C@@H]2CN(c3cccc(-c4cncc(F)c4)n3)C[C@@H]2C1
Of A and B , which carries the smaller reported IC50 figure? Kindly state the label of the option you pick. B
(B: 1.1 nM, A: 2.4 nM)
